Items are presented alongside their recorded inhibition at 1000 µM.
# test_target: Human Plasma Kallikrein (Homo sapiens, UniProt P03952)
# Sequence (P03952 391-638 limits assumed): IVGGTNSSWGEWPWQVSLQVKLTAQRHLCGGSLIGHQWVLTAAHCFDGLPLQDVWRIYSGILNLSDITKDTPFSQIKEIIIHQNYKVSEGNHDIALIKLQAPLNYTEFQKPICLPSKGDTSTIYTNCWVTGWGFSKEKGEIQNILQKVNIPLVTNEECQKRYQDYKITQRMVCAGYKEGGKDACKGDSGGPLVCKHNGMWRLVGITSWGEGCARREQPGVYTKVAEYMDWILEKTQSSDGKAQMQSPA
# Sequence (P03952 20-390 partner limits assumed): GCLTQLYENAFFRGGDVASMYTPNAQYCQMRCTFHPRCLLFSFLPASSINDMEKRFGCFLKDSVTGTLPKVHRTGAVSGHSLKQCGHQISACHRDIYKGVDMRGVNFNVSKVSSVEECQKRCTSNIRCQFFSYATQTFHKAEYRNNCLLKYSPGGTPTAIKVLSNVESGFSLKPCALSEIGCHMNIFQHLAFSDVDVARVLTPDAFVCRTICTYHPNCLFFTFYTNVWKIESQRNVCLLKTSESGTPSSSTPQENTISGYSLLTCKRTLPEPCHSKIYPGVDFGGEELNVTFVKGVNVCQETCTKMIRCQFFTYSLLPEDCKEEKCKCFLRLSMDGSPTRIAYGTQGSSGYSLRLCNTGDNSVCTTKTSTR
# protocol_description: Inhibitory effect on ester-hydrolyzing activity of human plasma kallikrein (TAMe substrate)
# Assay type: biochemical
# condition_notes: at 10^-3 M; in vitro, TAMe; read-out: Kallikrein percent inhibition
# Procedure: The enzyme-inhibitory activities in vitro of the compounds of this invention were measured by the following procedure according to the method of M. Muramatsu et al. [[…]. […] After the incubation, 1.5 ml of 2 M alkaline hydroxylamine was added and thoroughly mixed, and allowed to stand at room temperature for 15 minutes.

{"compound": "CCOC(=O)COC(=O)c1ccc(OC(=O)C2CCCc3c(N)cccc32)cc1 (stereo not drawn)", "sign": "=", "inhibition at 1000 µM / %": 14.1}
{"compound": "N=C(N)Nc1cccc2c1CCCC2C(=O)Oc1ccc(Cl)cc1 (stereo not drawn)", "sign": "<", "inhibition at 1000 µM / %": 3.2}
{"compound": "CN(C)C(=O)COC(=O)Cc1ccc(OC(=O)C2CCCc3ccc(N)cc32)cc1 (stereo not drawn)", "sign": "=", "inhibition at 1000 µM / %": 34.4}
{"compound": "COC(=O)c1cccc(OC(=O)C2CCCc3c(N)cccc32)c1 (stereo not drawn)", "sign": "=", "inhibition at 1000 µM / %": 28}
{"compound": "CCOC(=O)c1ccc(OC(=O)C2CCCc3c(N)cccc32)cc1.Cl (stereo not drawn) [Compound 66, hydrochloride]", "sign": "=", "inhibition at 1000 µM / %": 19.9}
{"compound": "CCOC(=O)COC(=O)c1ccc(OC(=O)C2CCCc3ccc(N)cc32)cc1 (stereo not drawn)", "sign": "<", "inhibition at 1000 µM / %": 3.2}
{"compound": "CN(C)C(=O)COC(=O)c1ccc(OC(=O)C2CCCc3ccc(N)cc32)cc1 (stereo not drawn)", "sign": "=", "inhibition at 1000 µM / %": 36}
{"compound": "NC(=O)COC(=O)c1ccc(OC(=O)C2CCCc3c(N)cccc32)cc1 (stereo not drawn)", "sign": "=", "inhibition at 1000 µM / %": 23.4}
{"compound": "COC(=O)c1cccc(OC(=O)C2CCCc3ccc(N)cc32)c1 (stereo not drawn)", "sign": "<", "inhibition at 1000 µM / %": 3.2}
